- Measurement target: T1, PSMA Fab (006 PSMA Fab)
- T1 construct: also called Anti-PSMA Fab; anti-PSMA Fab
- Experimental protocol: clonal phage ELISA; biotinylated PSMA Fab on neutravidin plate pre-incubated with PSMA antigen as competitor; anti-M13 HRP detection;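 also: crude clonal phage supernatants briefly incubated on wells preloaded with PSMA antigen in blocking buffer, or buffer only as control, bound phage detected with HRP-conjugated anti-M13 antibody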
Where no end group is shown, it is not given here.
Measurement label: Phage binding ELISA signal, Anti-PSMA Fab in presence of PSMA
Number only, no unit.

Binder	Numeric value
DAVRCVPSWMCEGF (cysteine pairing not given here; also: fused to phage pIII, orientation and linker not given here) [Phage-3131]	0.1
THIICKPAWMCDAW (cysteine pairing not given here; also: fused to phage pIII, orientation and linker not given here) [Phage-3132]	0.0691
IVPKCQPSWMCFGF (cysteine pairing not given here; also: fused to phage pIII, orientation and linker not given here) [Phage-3137]	0.0991

Now take the following binder into account.
Which measured Phage binding ELISA signal, Anti-PSMA Fab in presence of PSMA value corresponds to DTRICKPEWMCMGM (cysteine pairing not given here; also: fused to phage pIII, orientation and linker not given here) [Phage-3138] ?
0.107
